Published pIC50 for Tyrosine-protein kinase Fgr (Homo sapiens, UniProt P09769), assembled from different documents, is shown next.
// pIC50: -log10(molar conc.)

The recorded pIC50 with Tyrosine-protein kinase Fgr (Homo sapiens, UniProt P09769) for `COCC(=O)N1CCO[C@@H](c2nc(-c3ccc(C(=O)Nc4cc(C(F)(F)F)ccn4)cc3F)c3c(N)nccn23)C1` was 7.16

The recorded pIC50 with Tyrosine-protein kinase Fgr (Homo sapiens, UniProt P09769) for `COc1cc(-c2csc3c(/C=C/CN4CCC(O)CC4)cnc(N)c23)ccc1NC(=O)c1cc2ccccc2n1C` was 4.42

The recorded pIC50 with Tyrosine-protein kinase Fgr (Homo sapiens, UniProt P09769) for `CCc1ccc(-c2ccc3c(c2)-c2n[nH]cc2S(=O)(=O)N3C)cc1` was 5.72

The recorded pIC50 with Tyrosine-protein kinase Fgr (Homo sapiens, UniProt P09769) for `CC(C)C(=O)N1CCO[C@@H](c2nc(-c3ccc(C(=O)Nc4cc(C(F)(F)F)ccn4)cc3F)c3c(N)nccn23)C1` was 6.57

The recorded pIC50 with Tyrosine-protein kinase Fgr (Homo sapiens, UniProt P09769) for `CC(C)Oc1cc(-n2cnc3ccc(N[C@@H](C)c4ccc(F)cn4)nc32)n[nH]1` was 8.66

The recorded pIC50 with Tyrosine-protein kinase Fgr (Homo sapiens, UniProt P09769) for `COCC(=O)N1CCC[C@@H](c2nc(-c3ccc(C(=O)Nc4cc(C(F)(F)F)ccn4)cc3F)c3c(N)nccn23)C1` was 7.55

The recorded pIC50 with Tyrosine-protein kinase Fgr (Homo sapiens, UniProt P09769) for `COc1cc(Nc2c(C#N)cnc3cc(OCCCN4CCN(C)CC4)c(OC)cc23)c(Cl)cc1Cl` was 8.96

The recorded pIC50 with Tyrosine-protein kinase Fgr (Homo sapiens, UniProt P09769) for `COc1cc(-c2csc3c(/C=C/CN[C@H]4CC[C@@H](N)CC4)cnc(N)c23)ccc1NC(=O)c1cc2ccccc2n1C` was 4.66

The recorded pIC50 with Tyrosine-protein kinase Fgr (Homo sapiens, UniProt P09769) for `Nc1nccn2c([C@H]3CN(C4CCOCC4)CCO3)nc(-c3ccc(C(=O)Nc4cc(C(F)(F)F)ccn4)cc3F)c12` was 7.41

The recorded pIC50 with Tyrosine-protein kinase Fgr (Homo sapiens, UniProt P09769) for `C[C@H](Nc1nc(Nc2cn(C)cn2)c2cc[nH]c2n1)c1ncc(F)cn1` was 7.48

The recorded pIC50 with Tyrosine-protein kinase Fgr (Homo sapiens, UniProt P09769) for `CC1(C)OC(=O)N2C[C@H](c3nc(-c4ccc(C(=O)Nc5cc(C(F)(F)F)ccn5)cc4)c4c(N)nccn34)CC[C@H]21` was 7.47
